study.target: T1, human C5 (human, UniProt P01031 19-673; P01031 678-1676, limits assumed)
T1 construct: In the sheep RBC lysis assay, C5 is the C5 of normal human serum; also called huC5
experiment: BLI (Gator), antibody on anti-human IgG Fc probes, 40 nM human C5 bound 600 s at pH 7.4, 600 s dissociation at pH 5.8
Method: pH dependency of the humanized anti-C5a constructs were tested using C5 binding assays. A Biolayer interferometry instrument, Gator™ (Probe life Inc., USA) was used to determine pH dependent dissociation of histidine mutants and the benchmark antibodies. Briefly, anti-human IgG Fc (FHC) Probes were equilibrated in the kinetic (K) buffer of Phosphate-buffered saline containing 0.02% bovine serum albumin and 0.002% Tween20 pH 7.4. […] The data were processed and analyzed by the Gator evaluation software.
A collection of binders and their measured Dissociation pH 5.8 (%)

- binder: "E54H (humanized anti-C5a IgG4 antibody) (antibody, V domains shown, Carries F29H and E54H in VH and Y96H in VL (Kabat) relative to 16D10) VH: QVQLVQSGAEVKKPGSSVKVSCKASGYTHTDHIIHWMRQAPGQGLEWMGYIYPRHGWTNYNENFKGRVTITADKSTSTAYMELSSLRSEDTAVYYCARERNLEYFDYWGQGTTVTVSS VL: DIVLTQSPASLAVSPGQRATITCKASQSVDYEGFNYMNWYQQKPGQPPKLLIYAASNLDSGVPARFSGSGSGTDFTLTINPVEAEDTANYYCQQSNEDPHTFGGGTKVEIKR"
  Dissociation pH 5.8 (%): 60.8
- binder: "16D10 (humanized anti-C5a IgG4 antibody) (antibody, V domains shown, also called WT (16D10); WT) VH: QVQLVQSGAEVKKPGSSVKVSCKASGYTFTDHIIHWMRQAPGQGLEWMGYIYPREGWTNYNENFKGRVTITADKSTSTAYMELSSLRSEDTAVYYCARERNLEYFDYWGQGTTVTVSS VL: DIVLTQSPASLAVSPGQRATITCKASQSVDYEGFNYMNWYQQKPGQPPKLLIYAASNLDSGVPARFSGSGSGTDFTLTINPVEAEDTANYYCQQSNEDPYTFGGGTKVEIKR"
  Dissociation pH 5.8 (%): -2.42
- binder: "N97H (humanized anti-C5a IgG4 antibody) (antibody, V domains shown, Carries F29H and N97H in VH and Y96H in VL (Kabat)) VH: QVQLVQSGAEVKKPGSSVKVSCKASGYTHTDHIIHWMRQAPGQGLEWMGYIYPREGWTNYNENFKGRVTITADKSTSTAYMELSSLRSEDTAVYYCARERHLEYFDYWGQGTTVTVSS VL: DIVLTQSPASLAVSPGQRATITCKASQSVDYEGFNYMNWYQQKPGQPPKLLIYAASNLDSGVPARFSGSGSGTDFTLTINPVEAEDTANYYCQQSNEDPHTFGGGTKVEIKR"
  Dissociation pH 5.8 (%): 49
- binder: "N92H (humanized anti-C5a IgG4 antibody) (antibody, V domains shown, Carries F29H in VH and N92H and Y96H in VL (Kabat); also called N92H antibody) VH: QVQLVQSGAEVKKPGSSVKVSCKASGYTHTDHIIHWMRQAPGQGLEWMGYIYPREGWTNYNENFKGRVTITADKSTSTAYMELSSLRSEDTAVYYCARERNLEYFDYWGQGTTVTVSS VL: DIVLTQSPASLAVSPGQRATITCKASQSVDYEGFNYMNWYQQKPGQPPKLLIYAASNLDSGVPARFSGSGSGTDFTLTINPVEAEDTANYYCQQSHEDPHTFGGGTKVEIKR"
  Dissociation pH 5.8 (%): 54.2

Measured values drawn from patent US20240376189A1 for this set.
